- TEST DESCRIPTION: Ratio of drug level in C57BL/6 mouse brain to blood at 3.4 mg/kg, po
- Type: ADME, organism-based
ENDPOINT NAME: Kp
One number for each entry.

Query: Param item = O=C(Nc1ccc(Cl)c(S(=O)(=O)N2CCNCC2)c1O)Nc1cccc(Cl)c1Cl ; retrieve measured Kp.
Result: 0.17

* * *

Field: AUC(0-t) at 4 h. Provide a value for each of the compounds that follow.
- TEST DESCRIPTION: AUC (0 to 4 hrs) in C57BL/6 mouse blood at 2 mg/kg, ip by UPLC/MS/MS analysis
- Format: ADME, organism-based
- Parameters: dose 2 mg/kg, time < 4 hr, route intraperitoneal
- COND: C57BL/6, mouse, blood
Numbers only, in ng·h/mL.

COMPOUND	AUC(0-t) at 4 h / ng·h/mL
CN1CCC(S(=O)(=O)c2c(Cl)ccc(NC(=O)Nc3cccc(F)c3Cl)c2O)CC1	735

Record AUC(0-t) at 4 h for all entries; do not skip any.
1. CN1CC2(CC(S(=O)(=O)c3c(Cl)ccc(NC(=O)Nc4cccc(F)c4Cl)c3O)C2)C1
2. C[C@@H]1CN(S(=O)(=O)c2c(Cl)ccc(NC(=O)Nc3cccc(Cl)c3Cl)c2O)C[C@H](C)O1

Result:
1. 1050
2. 519

# map each compound to its AUC(0-t) at 4 h
1. O=C(Nc1ccc(Cl)c(S(=O)(=O)C2CCOC2)c1O)Nc1cccc(Cl)c1Cl (stereo not given)
2. CN1CCN(S(=O)(=O)c2c(Cl)ccc(NC(=O)Nc3cccc(Cl)c3Cl)c2O)CC1

Result:
284
303

* * *

- TEST DESCRIPTION: Ratio of drug level in C57BL/6 mouse brain to blood at 2 mg/kg, ip
- Assay type: ADME, organism-based
- COND: C57BL/6, mouse, brain/blood
ENDPOINT NAME: Kp
Numbers only.

1) CCS(=O)(=O)c1c(Cl)ccc(NC(=O)Nc2cccc(Cl)c2Cl)c1O 0.29
2) O=C(Nc1ccc(Cl)c(S(=O)(=O)C2CCNCC2)c1O)Nc1cccc(Cl)c1Cl 0.03
3) CN1CC[C@H](S(=O)(=O)c2c(Cl)ccc(NC(=O)Nc3cccc(Cl)c3Cl)c2O)C1 0.28

Hello, I would appreciate it if you could give Kp for each entry below.
1. O=C(Nc1ccc(Cl)c(S(=O)(=O)C2CCC2)c1O)Nc1cccc(F)c1Cl
2. CN1CC2(CC(S(=O)(=O)c3c(Cl)ccc(NC(=O)Nc4cccc(F)c4Cl)c3O)C2)C1

Result:
1: 0.28; 2: 0.02

* * *

- TEST DESCRIPTION: Ratio of drug level in C57BL/6 mouse brain to blood at 2 mg/kg, ip
- Type: ADME, organism-based
- COND: C57BL/6, mouse, brain/blood
Answer each item with its documented Kp.
One number for each entry.

A selection of reference data follows.
1) CC(C)S(=O)(=O)c1c(Cl)ccc(NC(=O)Nc2cccc(F)c2Cl)c1O 0.48
2) O=C(Nc1ccc(Cl)c(S(=O)(=O)C2CCCC2)c1O)Nc1cccc(F)c1Cl 0.42
3) CC(C)N1CCN(S(=O)(=O)c2c(Cl)ccc(NC(=O)Nc3cccc(F)c3Cl)c2O)CC1 1.87

Fill in Kp for each of the 6 molecules listed.
1. CN1CCN(S(=O)(=O)c2c(Cl)ccc(NC(=O)Nc3cccc(F)c3Cl)c2O)CC1
2. CN1CCC2(CC1)CC(S(=O)(=O)c1c(Cl)ccc(NC(=O)Nc3cccc(F)c3Cl)c1O)C2
3. CCN1CCN(S(=O)(=O)c2c(Cl)ccc(NC(=O)Nc3cccc(F)c3Cl)c2O)CC1
4. O=C(Nc1ccc(Cl)c(S(=O)(=O)C2CCOCC2)c1O)Nc1cccc(Cl)c1Cl
5. CC(C)(C)S(=O)(=O)c1c(Cl)ccc(NC(=O)Nc2cccc(F)c2Cl)c1O
6. C[C@@H]1CN(S(=O)(=O)c2c(Cl)ccc(NC(=O)Nc3cccc(Cl)c3Cl)c2O)C[C@H](C)O1

Result:
0.47
0.08
0.67
0.13
1.04
0.14
